# assayExplanation: yeast display, Sf9 membrane polyspecificity reagent, FACS + sequencing; frameworks hold sequencing errors

- inputSequence: "QVQLVESGGGLVQAGGSLRLICAASGSTFGIYAMGWFRQAPGKERELVAAISWRGGRTYYADSVKGSFTISRDNAKNNVYLQRNSLKPEDTAVYNCSADYRYLWEGYDYWGQGTQVTVSS"
  polyreactivity (PSR sort gate): "low polyreactivity"
- inputSequence: "QVQLVESGGGLVQAGGSLRLSCAASGSTFVKNDMGWYRQAPGKERELVAANSGGSTNYADSVTGRFTISRDNAKNTVYLQMNSLKPEDTAVYYCNAAVITKYAGRGGRPTGRMYYWGQGTQVTVSS"
  polyreactivity (PSR sort gate): "low polyreactivity"
